# target under test: human JAK2 (a.a. 828-1132) (Homo sapiens)
# Construct: JAK2 (a.a. 828-1132); His tag (N); made in house; host or cells: insect cells (baculovirus)
# Sequence (O60674 828-1132): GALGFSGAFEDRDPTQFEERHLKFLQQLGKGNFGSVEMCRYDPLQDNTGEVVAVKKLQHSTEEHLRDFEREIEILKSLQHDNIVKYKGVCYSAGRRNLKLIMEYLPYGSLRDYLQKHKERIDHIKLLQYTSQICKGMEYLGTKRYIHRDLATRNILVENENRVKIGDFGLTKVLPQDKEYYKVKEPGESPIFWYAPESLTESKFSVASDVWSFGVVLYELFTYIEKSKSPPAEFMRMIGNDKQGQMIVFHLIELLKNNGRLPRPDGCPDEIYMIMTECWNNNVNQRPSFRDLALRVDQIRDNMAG
# assay remarks: In vitro JAK kinase assay (HTRF, phosphorylation of a biotinylated peptide), JAK2
# Format: biochemical
# condition notes: Table D1
pIC50: −log10 of the molar value. Where a name gives a salt, the structure may show the parent alone.
Lab note: anything with pIC50 at or over 8 counts as True; the rest go in False.

Solved cases (4 shown):
>>> assigned_label("Clc1cnc2nc1Nc1cccc(c1)CNc1cccc(c1)N2 [Example D17, bis(trifluoroacetate)]")
"False"
>>> assigned_label("Clc1cnc2nc1Nc1cccc(c1)OCCc1cc(cc(-c3ccccc3)c1)N2 [Example D28, trifluoroacetate]")
"True"
>>> assigned_label("O=C(COc1ccc2cc1CCc1cncc(c1)Nc1ncc(Cl)c(n1)N2)N1CCN(c2cc(Cl)cc(Cl)n2)CC1 [Example D247, tris(trifluoroacetate)]")
"False"
>>> assigned_label("NC(=O)N1CCN(c2ccc3cc2CCc2cccc(c2)Nc2ncc(Cl)c(n2)N3)CC1 [Example D87, bis(trifluoroacetate)]")
"True"

### Prompt hey, is pIC50 for this one >= 8? Clc1cnc2nc1Nc1cccc(c1)CSCCc1cccc(c1)N2 [Example D32, trifluoroacetate]
### Response False

### Prompt // inclusive: pIC50 at least 8? input: O=C1CCc2cccc(c2)Nc2nc(ncc2Cl)Nc2cccc(c2)N1 [Example D76, trifluoroacetate]
### Response False

### Prompt Could you verify whether the entry O=C(C[C@@H]1CCN(C(=O)c2c[nH]nn2)C1)Nc1ccc2cc1CCc1cncc(c1)Nc1ncc(Cl)c(n1)N2 [Example D132, bis(trifluoroacetate)] shows pIC50 of no less than 8?
### Response False

### Prompt # check: pIC50 of O=C(Nc1cccc(F)c1)N1CCC(CCOc2ccc3cc2CCc2cncc(c2)Nc2ncc(Cl)c(n2)N3)CC1 [Example D169, bis(trifluoroacetate)] is greater than or equal to 8
### Response False

### Prompt Check if pIC50 >= 8 (inclusive). Item: Clc1cnc2nc1Nc1cccc(c1)OCc1cccc(c1)N2 [Example D7, trifluoroacetate]
### Response False

### Prompt Does N#Cc1ccccc1S(=O)(=O)N1CCC(CCOc2ccc3cc2CCc2cncc(c2)Nc2ncc(Cl)c(n2)N3)CC1 have a reported pIC50 of at least 8?
### Response False

### Prompt Has O=C(C[C@@H]1CCN(C(=O)Nc2cccc(F)c2)C1)Nc1ccc2cc1CCc1cncc(c1)Nc1ncc(Cl)c(n1)N2 [Example D119, bis(trifluoroacetate)] a recorded pIC50 greater than or equal to 8?
### Response False

### Prompt Determine whether this molecule has pIC50 no lower than 8: Clc1cnc2nc1Nc1cccc(c1)OCCc1cccc(c1)N2 [Example D8, trifluoroacetate]
### Response True

### Prompt Could you verify whether the entry Cc1csc(NC(=O)N2CCC(CCOc3ccc4cc3CCc3cncc(c3)Nc3ncc(Cl)c(n3)N4)CC2)c1 [Example D172, bis(trifluoroacetate)] shows pIC50 of no less than 8?
### Response False
